The measurements presented in this section are drawn from ChEMBL document CHEMBL1765069.

# test_summary: Fraction unbound in rat plasma
# Type: ADME, cell-free

- molecule: "O=C(c1cccc2[nH]ncc12)N1CC[C@@](O)(c2ccccc2)[C@@H]2CCCC[C@@H]21 (racemic)"
  fraction unbound: 0.048
- molecule: "Cc1ccc(C(=O)N2CC[C@@](O)(c3ccccc3)[C@@H]3CCCC[C@@H]32)cn1 (racemic)"
  fraction unbound: 0.15
- molecule: "CN1CCOCC1C(=O)N1CC[C@@](O)(c2ccccc2)[C@@H]2CCCC[C@@H]21 (mixture of isomers)"
  fraction unbound: 0.34

----------
Quick reference: IC50 of the listed items.
# system_name: Cannabinoid receptor 2 (Homo sapiens, UniProt P34972)
# Sequence (P34972 whole entry): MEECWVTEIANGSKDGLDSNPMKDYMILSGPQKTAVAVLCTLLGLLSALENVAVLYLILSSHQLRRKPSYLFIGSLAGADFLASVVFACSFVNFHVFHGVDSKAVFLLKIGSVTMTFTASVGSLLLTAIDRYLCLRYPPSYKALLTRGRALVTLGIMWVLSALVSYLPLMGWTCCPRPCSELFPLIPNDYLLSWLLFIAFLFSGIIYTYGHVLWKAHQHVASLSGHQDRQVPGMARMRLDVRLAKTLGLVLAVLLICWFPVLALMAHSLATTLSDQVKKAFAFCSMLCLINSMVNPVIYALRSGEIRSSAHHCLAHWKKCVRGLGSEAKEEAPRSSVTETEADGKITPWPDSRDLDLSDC
# test_summary: Agonist activity at human CB2 receptor expressed in CHOK1 cells assessed as inhibition of forskolin-induced cAMP production treated 15 mins before forskolin challenge measured after 1 hr by HTRF assay
endpoint_name: IC50 (nM)

- compound: "O=C(c1ncccn1)N1CC[C@@](O)(c2ccccc2)[C@@H]2CCCC[C@@H]21 (racemic)"
  endpoint_value: 29
- compound: "O=C(C1CN(CC(F)(F)F)CCO1)N1CC[C@@](O)(c2ccccc2)[C@@H]2CCCC[C@@H]21 (mixture of isomers)"
  endpoint_value: 30
- compound: "O=C(c1cn(CC(F)(F)F)cn1)N1CC[C@@](O)(c2ccccc2)[C@@H]2CCCC[C@@H]21 (racemic)"
  endpoint_value: 26
- compound: "O=C(c1ccc2ccccc2n1)N1CC[C@](O)(c2ccccc2)[C@H]2CCCC[C@H]21"
  endpoint_value: 0.82
